experiment: chemical genetic growth profiling, strain panel (AID 1159580);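 further: tested at 20 µM; growth read once vehicle control cultures reached saturation at 30 °C; 1 = growth at the plate median or of vehicle wells; lower values mean less growth of the strain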; settings: S. cerevisiae deletion strains, growth OD, locus YLR027C, strain aat2, stronger effect = lower value
Hit rate of the full screen: of about 5,500 compounds, about 2,000 (36%) were called active. Not shown: some 18% with an inconclusive outcome. The list shows a part of the results.
measured_attribute: normalized growth
Just the number.

Task item: Data request, read-out normalized growth, for NS(=O)(=O)c1cc2c(cc1C(F)(F)F)NC(Cc1ccccc1)NS2(=O)=O (centres undefined)
Reply: 0.985

Task item: Would you kindly repeat that for COc1cc(-c2cc(=O)c3c(O)c(OC)c(OC)c(OC)c3o2)cc(OC)c1OC ?
Reply: 1.01

Task item: Would you kindly repeat that for NC[C@@H]1O[C@H](O[C@@H]2[C@@H](CO)OC(O[C@@H]3[C@@H](O)[C@H](N)C[C@H](N)[C@H]3O[C@H]3O[C@H](CO)[C@@H](O)[C@H](O)[C@H]3N)[C@@H]2O)[C@H](N)[C@@H](O)[C@@H]1O (some centres undefined) ?
Reply: 0.987

Task item: Would you kindly repeat that for CC(=O)OCC(=O)[C@@]1(O)CCC2C3C[C@H](C)C4=CC(=O)C=CC4(C)C3[C@@H](O)CC21C (some centres undefined) ?
Reply: 1.01

Task item: Would you kindly repeat that for NCCCC(O)(P(=O)(O)O)P(=O)(O)O ?
Reply: 1

Task item: Would you kindly repeat that for C=CCSCC=C ?
Reply: 0.953

Where do these numbers come from? They come from PubChem BioAssay AID1159580.
